Tested on: SK-MEL-5 melanoma
Assay: NCI-60 one-dose screen, 48 h (100 = growth as untreated, 0 = no growth, -100 = all killed)
Details: 10 µM unless noted
Method: Growth inhibition of the SK-MEL-5 human tumor cell line is measured as a screen for anti-cancer activity. Cells are grown in 96 well plates and exposed to the test compound for 48 hours. Compounds are tested at a single concentration, which is 10^-5 M for most compounds. The reported endpoint is percent growth (GI% or GIPRCNT), where numbers from 0 - 100% represent growth inhibition, and numbers from -100% - 0 represent cell death. For example, a value of 40 represents 60% growth inhibition. […]
About 83,000 compounds went through this panel and 20% of them were active in at least one assay; those are over-represented in the sample as a whole.
Each entry below carries its reported growth.
// note: answer is a bare numeric in %

// C=C1CCC2C3(C)COC(c4cccs4)OC3CCC2(C)C1CC(Sc1ccccc1)C1=CCOC1=O (centres undefined) : growth value = 89.2

Continuing:
// O=c1[nH]n(C(=S)N/N=C/c2ccccc2Cl)c(=O)c2ccccc12 : growth value = 5.82

// CSc1ccc(C(=O)Nc2ccc3nn(/C(C#N)=C/c4ccccn4)nc3c2)cc1 : growth value = -54.9

// Cc1cccc(-c2nc(Nc3ccc(C)c(S(N)(=O)=O)c3)c3ccccc3n2)c1 : growth value = 29.5

The values you see were collected from PubChem BioAssay (NCI).
